Entry source: patent US20060111363A1

Tested on: BE skin melanoma cell line
EXPERIMENTAL PARAMETERS: read-out: IC50 of Salt I on survival
RECORDED ENDPOINT: IC50

query: Need IC50 of CS(=O)(=O)O.Cc1ccc(NC(=O)c2ccc(CN3CCN(C)CC3)cc2)cc1Nc1nccc(-c2cccnc2)n1 [Salt I] , thanks.
result: > 20 µM

* * *

Test system: OCM-1 cells
TEST NAME: XTT cell viability, uveal melanoma cell line OCM-1
EXPERIMENTAL PARAMETERS: read-out: IC50 of Salt I on survival; uveal melanoma cell line OCM-1; Example 1: 48 hours exposure
RECORDED ENDPOINT: IC50 (nM)
Supply the numeric figure in nM, leaving out any unit text.

query: Missing value: IC50, OCM-1 cells, entry CS(=O)(=O)O.Cc1ccc(NC(=O)c2ccc(CN3CCN(C)CC3)cc2)cc1Nc1nccc(-c2cccnc2)n1 [Salt I] . Fill in?
result: 400

* * *

Tested on: OCM-3 cells
TEST NAME: XTT cell viability, uveal melanoma cell line OCM-3
EXPERIMENTAL PARAMETERS: read-out: IC50 of Salt I on survival; uveal melanoma cell line OCM-3; Example 1: 48 hours exposure
RECORDED ENDPOINT: IC50 (nM)
Lab book: enter the figure in nM, no units written.

query: // query IC50 value for entry CS(=O)(=O)O.Cc1ccc(NC(=O)c2ccc(CN3CCN(C)CC3)cc2)cc1Nc1nccc(-c2cccnc2)n1 [Salt I]
result: 150
